Each record here notes measured log10 IC50.
# target: human TLR7 (Homo sapiens (Human))
# test: TLR7 inhibition reporter assay (HEK-Blue SEAP)
# Format: cell-based
# test.conditions: HEK-Blue cells overexpressing human TLR7, gardiquimod 7.5 μM stimulation, SEAP reporter
Could you please treat all values as log10 of IC50 in nM?

[
  {
    "compound": "CC(C)c1c(-c2cn(C)c3ncccc23)[nH]c2ccc(N3CC(NC4CCOCC4)C3)nc12 [Example 33]",
    "target": "human TLR7 (Homo sapiens (Human))",
    "number": 0.81
  },
  {
    "compound": "CC(C)c1c(-c2cc(CO)c3ncnn3c2)[nH]c2ccc(N3CCC(NC4COC4)CC3)nc12",
    "target": "human TLR7 (Homo sapiens (Human))",
    "number": 0.11
  },
  {
    "compound": "Cc1c(-c2[nH]c3ccc(N4CCN(C5COC5)CC4=O)nc3c2C(C)C)cn2ncnc2c1C",
    "target": "human TLR7 (Homo sapiens (Human))",
    "number": 2.10
  },
  {
    "compound": "Cc1c(-c2[nH]c3ccc(N4CCC(N(Cc5cn(C)nn5)Cc5cn(C)nn5)CC4)nc3c2C(C)C)cn2ncnc2c1C",
    "target": "human TLR7 (Homo sapiens (Human))",
    "number": 1.46
  },
  {
    "compound": "CC(C)c1c(-c2cn(CC#N)c3ncccc23)[nH]c2ccc(C3CCC(NCC(=O)N(C)C)CC3)nc12 (stereo not shown) [Example 276]",
    "target": "human TLR7 (Homo sapiens (Human))",
    "number": 0.95
  }
]

Query: Looking for the measured log10 IC50 of Cc1c(-c2[nH]c3ccc(N4CCN(C(=O)CN5CCC5)CC4)nc3c2C(C)C)cn2ncnc2c1C , can you help?
Response: 0.75

Query: Looking for the measured log10 IC50 of Cc1c(-c2[nH]c3ccc(C4CCC(N5CC(F)(F)C5)CC4)nc3c2C(C)C)cn2ncnc2c1C (stereo not shown) [Example 370] , can you help?
Response: 0.93

Query: Looking for the measured log10 IC50 of COC(=O)N1CCN(C2CN(c3ccc4[nH]c(-c5cn6ncnc6c(C)c5C)c(C(C)C)c4n3)C2)CC1 , can you help?
Response: 2.25

Query: Looking for the measured log10 IC50 of Cc1c(-c2[nH]c3ccc(N4CCN(C(=O)CN(C)C)CC4)nc3c2C(C)C)cn2ncnc2c1C , can you help?
Response: -0.03

Query: Looking for the measured log10 IC50 of CC(C)c1c(-c2cn(C)c3ncccc23)[nH]c2ccc(N3CC(N)C3)nc12 [Example 32] , can you help?
Response: 0.86

----------
# target: human TLR7 (Homo sapiens (Human), UniProt Q9NYK1)
# Sequence (Q9NYK1 27-1049): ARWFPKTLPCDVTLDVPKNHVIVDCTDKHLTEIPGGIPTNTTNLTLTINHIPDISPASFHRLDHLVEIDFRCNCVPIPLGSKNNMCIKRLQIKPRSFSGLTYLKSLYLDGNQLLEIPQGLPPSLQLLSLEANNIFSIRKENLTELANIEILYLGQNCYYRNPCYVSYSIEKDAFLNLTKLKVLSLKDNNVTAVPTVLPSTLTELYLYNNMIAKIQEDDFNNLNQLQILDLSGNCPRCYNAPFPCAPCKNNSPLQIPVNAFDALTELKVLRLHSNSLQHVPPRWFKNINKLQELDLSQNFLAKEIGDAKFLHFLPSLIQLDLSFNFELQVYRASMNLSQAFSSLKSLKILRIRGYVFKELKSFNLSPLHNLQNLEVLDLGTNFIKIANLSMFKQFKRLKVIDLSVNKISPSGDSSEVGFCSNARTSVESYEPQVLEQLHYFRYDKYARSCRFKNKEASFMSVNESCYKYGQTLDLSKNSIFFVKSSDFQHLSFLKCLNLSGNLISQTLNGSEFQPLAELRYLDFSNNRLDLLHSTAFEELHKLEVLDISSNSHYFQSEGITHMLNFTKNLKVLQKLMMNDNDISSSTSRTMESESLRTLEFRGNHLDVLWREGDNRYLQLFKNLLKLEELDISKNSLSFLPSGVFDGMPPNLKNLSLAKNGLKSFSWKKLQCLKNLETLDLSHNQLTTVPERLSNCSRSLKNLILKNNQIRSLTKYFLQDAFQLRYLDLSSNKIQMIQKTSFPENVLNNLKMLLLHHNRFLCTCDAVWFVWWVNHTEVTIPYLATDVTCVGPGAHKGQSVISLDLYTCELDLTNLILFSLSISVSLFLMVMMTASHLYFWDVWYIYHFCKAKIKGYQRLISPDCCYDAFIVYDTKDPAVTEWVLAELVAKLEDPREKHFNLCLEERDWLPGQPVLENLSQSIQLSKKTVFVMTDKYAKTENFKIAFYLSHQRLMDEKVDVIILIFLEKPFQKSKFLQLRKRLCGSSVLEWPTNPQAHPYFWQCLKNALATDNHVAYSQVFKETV
# test: TLR7 inhibition reporter assay (HEK-Blue SEAP)
# Assay type: cell-based
# test.conditions: HEK-Blue cells overexpressing human TLR7, SEAP reporter, gardiquimod 7.5 μM
assay.endpoint: IC50

Use these answered entries as a reference point.
[
  {
    "molecule": "Cc1c(-c2[nH]c3ccc(N4[C@@H]5CC[C@H]4CN(C(=O)CN(C)C)C5)nc3c2C(C)C)cn2ncnc2c1C",
    "target": "human TLR7 (Homo sapiens (Human), UniProt Q9NYK1)",
    "IC50": "0.59 nM"
  },
  {
    "molecule": "Cc1c(-c2[nH]c3ccc(N4[C@@H]5CC[C@H]4CN(CCS(C)(=O)=O)C5)nc3c2C(C)C)cn2ncnc2c1C",
    "target": "human TLR7 (Homo sapiens (Human), UniProt Q9NYK1)",
    "IC50": "7.5 nM"
  }
]

Query: Form entry - test system: human TLR7 (Homo sapiens (Human), UniProt Q9NYK1); read-out: IC50; molecule: Cc1c(-c2[nH]c3ccc(CCC4CN(C5COC5)C4)nc3c2C(C)C)cn2ncnc2c1C [Example 686]
Response: > 3120 nM

Query: Form entry - test system: human TLR7 (Homo sapiens (Human), UniProt Q9NYK1); read-out: IC50; molecule: Cc1c(-c2[nH]c3ccc(C4CCC(N(CC#N)CCS(C)(=O)=O)CC4)nc3c2C(C)C)cn2ncnc2c1C (stereo not shown) [Example 457]
Response: 0.32 nM

The measured values listed here are drawn from patent US10544143B2.
